METHOD SUMMARY: protein stability index of a GFP-peptide fusion (yeast GPS) (PSI 1-4); higher = more stable; sorted into four equal gates, so the index is relative within each strain
SETTINGS: ubr1∆
QUANTITY NAME: protein stability index
Respond with the number and no other words.

For SFLGYLRYVKQIEGPFL [ISW2] the sequence record lists protein stability index as 2.4

Note to self: protein stability index recorded for VKLGNIWKESLIELSGG [SMC2] was 2.19

The recorded protein stability index for YIRVNHADKDTFSSSIS [POP8] is 2.18

Noted for NNPKVKTSKRTKRWYKN [RPS11A] : its protein stability index reads 3.19

Entry KKITLQLLDTSNQRFKD [SIN4] ; protein stability index = 2.88

protein stability index reading for SASSLVITALKEPPRDR [RPL12A] : 2.22

====

METHOD SUMMARY: protein stability index of a GFP-peptide fusion (yeast GPS) (PSI 1-4); higher = more stable; sorted into four equal gates, so the index is relative within each strain
SETTINGS: doa10∆
protein stability index by entry:
Respond numerically, and do not add a unit to the figure.

Consider the reported protein stability index for these sequences:
GNVLLNATVVDSFKYEP [YLR335W/NUP2]
2.92
KHISASIDNDFSEEKAE [YAR002W/NUP60]
3.04
SFTYELKQHNQNNLPPN [BRR2]
2.95
PPSKHSTLTLSDSEDSD [ESC2]
3.01
AKKQNRPLPQWIRLRTN [RPL39]
1.95

Lab note: measured protein stability index of SFDVAISTACPRLDDVV [SMC4] was 3.12

Summary for this sequence, VLGNSRGVDAGKGNTFE [RPN14] : protein stability index is 2.73

Record SVTRAGNIISSDKTIVP [SIN4] , field protein stability index: 3.01

protein stability index measured on APIPKGRVKYTKRQKHF [POP1] = 1.2

====

METHOD SUMMARY: protein stability index of a GFP-peptide fusion (yeast GPS) (PSI 1-4); higher = more stable; sorted into four equal gates, so the index is relative within each strain
SETTINGS: doa10∆
// protein stability index lookup, one value per entry
Just the number.

DLINILEKKGFSEVYEY [LIN1]
3.44
SAFMKFSKAIEWDMLNV [BRR2]
2.15

Form field protein stability index, entry IRKTPLAQKKAHLAEIQ [RPL3] : 2.19

# protein stability index (sequence: AQLAKAKTELNEVSLAI [SMC2] ) is 3

====

METHOD SUMMARY: protein stability index of a GFP-peptide fusion (yeast GPS) (PSI 1-4); higher = more stable; sorted into four equal gates, so the index is relative within each strain
SETTINGS: san1∆
The class of a record is decided solely by its measured protein stability index; consult zone 1: < 2; zone 2: ≥ 2 and < 3; zone 3: ≥ 3

LYEKLKQEIMMSDLFTF [ISW2]
zone 2

Qu. Class? Entry: RSALEKGSRFISTLQVK [RPB2]
Ans. zone 1

Qu. Looking at DWVRFLALALGILYMGQ [RPN1] , which class would you pick?
Ans. zone 2

Qu. // bin(item) where item = ADNDGPRINNISAEDRA [SNF2]
Ans. zone 2

Qu. Consider IKESSKKIKGKSIQDIV [SRP21] . To which protein stability index class does it belong?
Ans. zone 3

Qu. Would you mind sorting RIFKITEKLSPLASEES [YGL100W/SEH1] into the appropriate category?
Ans. zone 2

Qu. Could you place QPNEISFKYLSNNDEDD [RGR1] in its proper category? Many thanks.
Ans. zone 1

Qu. Exercise: read the entry NIGTPSFNMAQIPQQLY [SNF5] and state which class it falls under.
Ans. zone 2

Qu. Just checking, what class would you give AVKNKYNVGKQLSNEII [PRP28] here?
Ans. zone 2

Qu. The entry to classify is RMPIMLRSNKCILYDAD [RET1] ; which class holds it?
Ans. zone 1

Qu. Any idea which band IKLGSTAIGIATKEGVV [PUP2] is in?
Ans. zone 1

Qu. Which category does the recorded protein stability index put KNDNIKKSVNKLDKQIN [POP6] in?
Ans. zone 2

Qu. Any idea which band RFSYSPPKEGNYEIVFD [YMR129W/POM152] is in?
Ans. zone 3

====

METHOD SUMMARY: protein stability index of a GFP-peptide fusion (yeast GPS) (PSI 1-4); higher = more stable; sorted into four equal gates, so the index is relative within each strain
SETTINGS: pdr5∆
QUANTITY NAME: protein stability index
Lab note: jot down the number only; don't add units.

Reference set, count: 8
AMHNSKAASSTRIFQAL [POP1]
2.54
KDLKFPLPHRVQKSTKT [RPL20A]
2.68
LIRRLVRVGVLSEDKKK [RPS9A]
1.45
GMPHKFYQGKTGVVYNV [RPL21A]
2.86
LKSHYYQTCKNSEYLKR [SMC2]
1.5
DEEMTISQKLHDSILHS [RRP43]
2.74
RTPVIISLRNNHKIIAR [SMD2]
1.97
LSCQYDNTVRTSANGIV [RPO31]
1.26

Input SFDVAISTACPRLDDVV [SMC4] . Output protein stability index: 3.34

So, WRFHTPQKYVLHPQLHE [SIN4] ? Its protein stability index was 2.11

Entry SLKQYAGNLITTPEINN [SRP68] , protein stability index reported as 2.88

The sequence listed as VGTAIDSILNYAKSEFD [ECM29] shows protein stability index equal to 2.77

get_value(item= PCVEDGFVIQDRETALD [RPB2] , readout=protein stability index) returns 3.18

The sequence listed as NDPEILKKIASIPNLFP [SWI1] has a reported protein stability index of 2.19

Field protein stability index (entry ALAFCEIGITQQRIVSA [RRP4] ) reads 2.31

Lab book: protein stability index of QIQQQQQKQQQQQQQHQ [SNF5] noted as 2.97

The reported protein stability index of the sequence KPTSPFIDSICKLFDKI [SRB8] was 1.93

# protein stability index (sequence: LALGCHFQDQKNKKIEV [POP7] ) is 2.97

# sequence PSCVYNLIGVITHQGAN [UBP6] ; its protein stability index = 2.9

For this sequence ( PDAQNELPKFILSDSPL [DIS3] ), measured protein stability index is 3.03

Looking up LGYKDTSVIQDLSEKIL [BRR2] , I found its protein stability index recorded as 2.8

sequence SDLLVAPPLENENSNCL [YML103C/NUP188] , protein stability index observed: 3.28

The value of protein stability index measured for the sequence NTILNSSSDFRLHYYPK [BRR2] turned out to be 3.17

Looking up ESDETTTDNNNSGNSNS [RPT1] , I see its protein stability index listed as 3.11

Please fill in: protein stability index reported for LLVQKRFKYAPGTIVLY [RPS3] = 1.87

====

METHOD SUMMARY: protein stability index of a GFP-peptide fusion (yeast GPS) (PSI 1-4); higher = more stable; sorted into four equal gates, so the index is relative within each strain
SETTINGS: ubr1∆
QUANTITY NAME: protein stability index
Could you keep your reply to the number by itself?

Reference set, count: 2
DWQMMTSPVTGATEKRK [CSL4]
1.52
KAKRSNLYTPKAEMPPE [PRP8]
2.89

Data point: YFGENSSISWKNIAQCL [YJL039C/NUP192] ; protein stability index = 2.11

For record WSHNGPFETFDHASIRR [CYT1] the listed protein stability index is 2.96

Looking up EEPSRVDPEQEAHNKAL [RPT4] , I see its protein stability index listed as 3.23

Form field protein stability index, entry IRKQPDDIINNDEPSHK [SIR2] : 2.83

Just so you know, measured protein stability index for LRVEHIKHSKCRQEFLE [RPL21A] came out at 1.31

Lab note: measured protein stability index of GTYIQERNPSQRPQRRY [RPS10B] was 3.23

Briefly, protein stability index measured for GFPSAPQPLFMEDPPST [YMR153W/NUP53] : 2.8

The value of protein stability index measured for the sequence TGMSSMSPFLRKVVKPS [SRB4] turned out to be 2.48

Entry under test: PELGDKFSSRHGQKGVC [RET1] . Its protein stability index was 3.09

protein stability index measured on DFGFDLDIEKEAPAGNI [MCD1] = 3.3

Noted for SNPSGNYTGWKAISVGA [PRE9] : its protein stability index reads 2.22

Documented protein stability index of KTDPAGYYVGYKATATG [SCL1] : 3.25

Lab book: protein stability index of SMDTKKKHKQKKVLEID [BRN1] noted as 3.33

====

This listing pairs sequences with measured protein stability index.
METHOD SUMMARY: protein stability index of a GFP-peptide fusion (yeast GPS) (PSI 1-4); higher = more stable; sorted into four equal gates, so the index is relative within each strain
SETTINGS: ubr1∆
Respond with the number and no other words.

// worked examples, protein stability index included
TSPSYSPTSPSYSPTSP [RPO21]
2.81
SKAQQKTAEQVAAERAA [RPL7A]
2.68
VSIKFTNAAFPFHDPEA [ECM29]
1.83
TYGFLTPNLWAEQPLPV [RPS2]
1.54
TPAELVGKFLGYVSSLV [FAS1]
2.06
QKTQELNAKYQSLGLDD [ISW2]
3.31
PSTKVASSAVMNRRKIA [YLR335W/NUP2]
2.38

Briefly, protein stability index measured for RFSYSPPKEGNYEIVFD [YMR129W/POM152] : 3.45

meta.source: the supplement of paper PMC9732359
